- Tested on: P. falciparum 3D7 parasites
- MEASUREMENT_DESCRIPTION: P. falciparum growth inhibition assay, 1-cycle (72 h treatment), SYBR DNA staining (library screen at 2 μg/mL and dose-response)
- Format: cell-based, Plasmodium falciparum
- PROTOCOL_CONDITIONS: Plasmodium falciparum, 3D7; P. falciparum, 72 h, screen at 2 μg/mL, replicate 2; read-out: Pf_72h_%Growth_Rep2
Attribute: activity at 2 µg/mL

MOLECULE	activity at 2 µg/mL / %
O=C1N[C@@H](Cc2c[nH]c3ccccc23)C(=O)N2CCC[C@@H]12 [Brevianamide F]	84.4
CC[C@H]1OC(=O)C[C@@H](O)[C@H](C)[C@@H](O[C@@H]2O[C@H](C)[C@@H](O)[C@H](N(C)C)[C@H]2O)[C@@H](CCN2C[C@H](C)C[C@H](C)C2)C[C@@H](C)C(=O)/C=C/C(C)=C/[C@@H]1CO[C@@H]1O[C@H](C)[C@@H](O)[C@@H](OC)[C@H]1OC [Tilmicosin, reference compound]	41.2
COC[C@H]1OC(=O)c2coc3c2[C@@]1(C)C1=C(C3=O)[C@@H]2CCC(=O)[C@@]2(C)C[C@H]1OC(C)=O [Wortmannin]	119
CC[C@H](C)C(=O)[C@@H](C)C1=CC(=O)C2=C(O[C@]3(C)CC[C@H]4O[C@@H](C(C)(C)O)CC[C@]4(C)[C@H]3C2)C1=O [Cochlioquinone B]	52.9
CN(C)[C@@H]1C(O)=C(C(N)=O)C(=O)[C@@]2(O)C(O)=C3C(=O)c4c(O)cccc4[C@@](C)(O)[C@H]3C[C@@H]12 [Tetracycline]	83.3

----------
- Test system: T. gondii RH strain (RH-Tub-eYFP) tachyzoites
- MEASUREMENT_DESCRIPTION: microbe, parasite or virus in culture
- Format: cell-based, Toxoplasma gondii
- PROTOCOL_CONDITIONS: T. gondii, 72 h, parasite screen at 2 μg/mL, % growth, replicate 1
Listed below: Tg_72h_%Growth_Rep1 values for each entry.
REPORTED_METRIC: Tg_72h_%Growth_Rep1 (%)

MOLECULE	U	VALUE_REPORTED
CC=C(C)c1c(Cl)c(O)c(C)c2c1Oc1c(Cl)c(O)c(Cl)c(C)c1C(=O)O2	%	86.78
CC1=CCC2CC(CC3(CCC(C)C(C)O3)O2)OC(=O)C2C=C(C)C(O)C3OCC(=CC=CC(C)C1)C23O (stereo not shown)	%	114.92
O=C(O)CC[N+](=O)[O-]	%	133.03
C=C[C@]1(C)C[C@@H](O)[C@]2(C)[C@H](C)CC[C@]3(CCC(=O)[C@H]32)[C@@H](C)[C@@H]1O	%	107.76
CON=C1CC2(CC3CC(CC=C(C)CC(C)C=CC=C4COC5C(O)C(C)=CC(C(=O)O3)C45O)O2)OC(C(C)=CC(C)C)C1C (stereo not shown)	%	102.84
CC1CC=CC=CC=CC=CC(OC2OC(C)C(O)C(N)C2O)CC2OC(O)(CC(O)CC3OC3C=CC(=O)O1)CC(O)C2C(=O)O (stereo not shown)	%	91.98
O=c1cc([O-])c1=O.[Na+]	%	105.46
CC=C(C)C(O)C(C)C=C(C)C=CCC(C)=CCc1nc(OC)c(OC)c(O)c1C (stereo not shown)	%	120.41
CCOC(=O)[C@H](Cc1ccccc1)NC(=O)c1cc(Cl)c2c(c1O)C(=O)O[C@H](C)C2	%	74.06
NC(=O)c1cccc2nc3ccccc3nc12	%	111.76
CC(C)=CCCC(C)C1CCC2(C)CC3C(C(=O)CC3(C)O)C(C=O)=CCC12 (stereo not shown)	%	7.63
COc1ccc2c(c1OC)C(=O)O[C@@H]2[C@H]1c2c(cc3c(c2OC)OCO3)CCN1C	%	85.42
CC[C@@H]1CCN[C@H](C(=O)N[C@@H]([C@H]2O[C@H](SC)[C@H](O)[C@@H](O)[C@H]2O)[C@H](C)Cl)C1	%	8.37
CC1=C[C@H]2O[C@@H]3[C@H](O)[C@@H](O)[C@](C)([C@@]2(CO)[C@H](O)C1=O)[C@]31CO1	%	0.21
Cn1c(=O)/c(=C/c2ccccc2)[nH]c(=O)/c1=C/c1ccccc1	%	116.90
COc1cc(C)c(C(=O)O)c(OC)c1	%	135.87
C=C1c2cccc(O)c2C(=O)C2=C(O)[C@]3(O)C(=O)C(C(N)=O)=C(O)[C@@H](N(C)C)[C@@H]3[C@@H](O)[C@H]12	%	118.90
CC[C@H](C)C(=O)O[C@H]1CCC=C2C=C[C@H](C)[C@H](CC[C@@H]3C[C@@H](O)CC(=O)O3)[C@H]21	%	113.16
CCCCCCCCCCCCCCCCCC(=O)N[C@H]1CCOC1=O	%	147.08
Cn1c2ccccc2c(=O)c2c(O)cc3c(c21)C=CC(C)(C)O3	%	111.30
CN(C)c1ccc(O)c2c1C[C@H]1C[C@H]3[C@H](N(C)C)C(O)=C(C(N)=O)C(=O)[C@@]3(O)C(O)=C1C2=O.Cl	%	5.81
OC[C@H]1O[C@@H](n2cnc3c2N=CNC[C@H]3O)C[C@@H]1O	%	120.62
O=C1Cc2ccccc2N1	%	124.39
CCCCCCC(=O)CCCCCC/C=C/C[C@@H](O)[C@H](O)[C@@](N)(CO)C(=O)O	%	113.89
COc1c(C)c2c(c(O)c1C/C=C(\C)CCC(=O)O)C(=O)OC2	%	1.75
CC(C)Cc1cnc(C(O)C(C)C)c(=O)n1O (stereo not shown)	%	143.25
CC(C)=CC1CC(C)C2(CCC3(C)CC4C(C(=O)CC4(C)O)C(C=O)=CCC32)O1 (stereo not shown)	%	5.87
CNC1CC2OC(C)(C1OC)n1c3ccccc3c3c4c(c5c6ccccc6n2c5c31)C(=O)NC4=O (stereo not shown)	%	57.26
CC1=CCC2CC(CC3(CCC(C)C(C)O3)O2)OC(=O)C2C=C(C)C(=NO)C3OCC(=CC=CC(C)C1)C23O (stereo not shown)	%	75.89
CC[C@H]1C[C@@H]2CC[C@@H](O2)[C@@H](C)C(=O)O[C@H](C)C[C@H]2CC[C@H](O2)[C@H](C)C(=O)O[C@@H](C)C[C@@H]2CC[C@@H](O2)[C@@H](C)C(=O)O[C@H](C)C[C@H]2CC[C@H](O2)[C@H](C)C(=O)O1	%	3.56
CC1=C\[C@@H](O)CC(=O)Cc2nc(co2)C(=O)N2CCC=C2C(=O)O[C@H](C(C)C)[C@H](C)/C=C/C(=O)NC\C=C\1	%	125.71
